target desc: Prostaglandin E2 receptor EP4 subtype (Homo sapiens)
Sequence (P35408 whole entry): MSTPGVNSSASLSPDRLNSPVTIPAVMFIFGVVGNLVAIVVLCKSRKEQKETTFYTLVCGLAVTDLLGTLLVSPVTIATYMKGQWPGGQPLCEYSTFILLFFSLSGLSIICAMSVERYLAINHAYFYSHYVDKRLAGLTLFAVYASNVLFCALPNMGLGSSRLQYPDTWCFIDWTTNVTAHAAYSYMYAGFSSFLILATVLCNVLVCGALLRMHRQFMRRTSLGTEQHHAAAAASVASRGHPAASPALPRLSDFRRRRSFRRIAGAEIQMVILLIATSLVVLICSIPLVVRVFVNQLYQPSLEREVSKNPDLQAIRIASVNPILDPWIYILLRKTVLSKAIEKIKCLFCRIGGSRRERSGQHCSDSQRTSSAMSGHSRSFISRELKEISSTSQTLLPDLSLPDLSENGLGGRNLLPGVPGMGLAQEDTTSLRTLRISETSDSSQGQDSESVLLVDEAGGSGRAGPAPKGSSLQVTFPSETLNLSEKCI
assay procedure: Activity at EP4 receptor at 1 uM by FLIPR assay
reported endpoint: Activity (%)

                           structure_string                               target_desc  reading
0  Cc1cn(Cc2ccc(Cl)cc2Cl)c2c(-c3nnc(NS(=O)(=O)c4ccc(F)c(F)c4)o3)cc(F)cc12  Prostaglandin E2 receptor EP4 subtype (Homo sapiens)       26
1  Cc1cn(Cc2ccc3ccccc3c2)c2c(-c3cc(NS(=O)(=O)c4cc(F)c(F)cc4F)no3)cc(F)cc12  Prostaglandin E2 receptor EP4 subtype (Homo sapiens)      -17
2  Cc1cn(Cc2ccc3ccccc3c2)c2c(-c3cc(NS(=O)(=O)c4ccc(Cl)c(Cl)c4)no3)cc(F)cc12  Prostaglandin E2 receptor EP4 subtype (Homo sapiens)      -15
3  Cc1cn(Cc2ccc(F)c(F)c2)c2c(-c3cc(NS(=O)(=O)c4cc(Cl)c(Cl)s4)no3)cc(F)cc12  Prostaglandin E2 receptor EP4 subtype (Homo sapiens)       11
4  Cc1cn(Cc2ccc(F)c(F)c2)c2c(-c3cc(NS(=O)(=O)c4ccc(F)c(F)c4)no3)cc(F)cc12  Prostaglandin E2 receptor EP4 subtype (Homo sapiens)       17

(1) Cc1cn(Cc2ccc(Cl)cc2Cl)c2c(-c3nnc(NC(=O)c4ccc(F)c(F)c4)o3)cc(F)cc12
(2) Cc1cn(Cc2ccc(F)c(F)c2)c2c(-c3cc(NS(=O)(=O)c4ccc(F)c(F)c4F)no3)cc(F)cc12
Lookup: Response body: label of entry with the larger Activity; valid values 1 , 2 . Which one? Tell me its label.
Found: 1
(1: 14%, 2: -3%)

Reference source for all entries: ChEMBL document CHEMBL1154363
